test: Solubility of agrochemical active ingredient in oil comprising ionic liquid; format: physicochemical; details: Cetiol B oil comprising ionic liquid, 21 °C, oil or lipid, thermodynamic from solid, 21° C.; Oil/IL 20/80 weight ratio; IL N-ethyl-N′-methylimidazolium heptanoate; read-out: Solubility of fluxapyroxad with Cetiol ® B as oil
quantity: solubility (mg/mL)
Numbers only, in mg/mL.

Look up solubility: Cn1cc(C(=O)Nc2ccccc2-c2cc(F)c(F)c(F)c2)c(C(F)F)n1
28.4

----------
assay: Solubility of agrochemical active ingredient in oil comprising ionic liquid; type: physicochemical; settings: Cetiol B / N-ethyl-N′-methylimidazolium isononanoate mixture, 21 °C, oil or lipid, thermodynamic from solid, 21° C.; Oil/IL 90/10 weight ratio; IL N-ethyl-N′-methylimidazolium isononanoate; read-out: Solubility of fluxapyroxad with Cetiol ® B as oil
quantity: solubility (mg/mL)
One number for each entry, in mg/mL.

Look up solubility: Cn1cc(C(=O)Nc2ccccc2-c2cc(F)c(F)c(F)c2)c(C(F)F)n1 [fluxapyroxad]
20.7

----------
test: Solubility of agrochemical active ingredient in oil comprising ionic liquid; type: physicochemical; conditions: Cetiol B oil comprising ionic liquid, 21 °C, oil or lipid, thermodynamic from solid, 21° C.; Oil/IL 80/20 weight ratio; IL N-propyl-N′-propylimidazolium acetate; read-out: Solubility of fluxapyroxad with Cetiol ® B as oil
quantity: solubility

Look up solubility: Cn1cc(C(=O)Nc2ccccc2-c2cc(F)c(F)c(F)c2)c(C(F)F)n1
35.4 mg/mL

----------
experiment: Solubility of agrochemical active ingredient in oil comprising ionic liquid; format: physicochemical; conditions: Cetiol B oil comprising ionic liquid, 21 °C, oil or lipid, thermodynamic from solid, 21° C.; Oil/IL 20/80 weight ratio; IL N-ethyl-N′-methylimidazolium dibutylphosphate; read-out: Solubility of fluxapyroxad with Cetiol ® B as oil
quantity: solubility (mg/mL)
Answers are plain numbers, in mg/mL.

Look up solubility: Cn1cc(C(=O)Nc2ccccc2-c2cc(F)c(F)c(F)c2)c(C(F)F)n1 [fluxapyroxad]
16.8

----------
experiment: Solubility of agrochemical active ingredient in oil comprising ionic liquid; assay type: physicochemical; conditions: Cetiol B oil comprising ionic liquid, 21 °C, oil or lipid, thermodynamic from solid, 21° C.; Oil/IL 90/10 weight ratio; IL Tetrabutylammonium [2-(2-methoxyethoxy)ethoxy]acetate; read-out: Solubility of fluxapyroxad with Cetiol ® B as oil
quantity: solubility
Show the value, then the unit it is measured in.

Look up solubility: Cn1cc(C(=O)Nc2ccccc2-c2cc(F)c(F)c(F)c2)c(C(F)F)n1 [fluxapyroxad]
16 mg/mL

----------
assay: Solubility of agrochemical active ingredient in oil comprising ionic liquid; assay type: physicochemical; settings: Cetiol B / cholinium octanoate mixture, 21 °C, oil or lipid, thermodynamic from solid, 21° C.; Oil/IL 20/80 weight ratio; IL Cholinium octanoate; read-out: Solubility of fluxapyroxad with Cetiol ® B as oil
quantity: solubility
Show the value, then the unit it is measured in.

Look up solubility: Cn1cc(C(=O)Nc2ccccc2-c2cc(F)c(F)c(F)c2)c(C(F)F)n1 [fluxapyroxad]
34.2 mg/mL

----------
test: Solubility of UV absorber in oil comprising ionic liquid; format: physicochemical; conditions: oil/ionic liquid mixture, 21 °C, oil or lipid, thermodynamic from solid, Oil/IL 20/80 weight ratio, IL N-ethyl-N′-ethylimidazolium octanoate, read-out: Solubility of Tinosorb ® S with Cetiol ® B as oil
quantity: solubility (mg/mL)
Give bare numbers, in mg/mL.

Look up solubility: CCCCC(CC)COc1ccc(-c2nc(-c3ccc(OC)cc3)nc(-c3ccc(OCC(CC)CCCC)cc3O)n2)c(O)c1 (stereo not shown)
16.7

----------
assay: Solubility of agrochemical active ingredient in oil comprising ionic liquid; assay type: physicochemical; conditions: neat cholinium octanoate (ionic liquid), 21 °C, organic solvent or mixture, thermodynamic from solid, 21° C.; 100 IL (no oil); IL Cholinium octanoate; read-out: Solubility of fluxapyroxad with Cetiol ® B as oil
quantity: solubility (µg/mL)
Answers are plain numbers, in µg/mL.

Look up solubility: Cn1cc(C(=O)Nc2ccccc2-c2cc(F)c(F)c(F)c2)c(C(F)F)n1
5000

----------
assay: Solubility of agrochemical active ingredient in oil comprising ionic liquid; type: physicochemical; settings: Cetiol B / N-ethyl-N′-methylimidazolium isononanoate mixture, 21 °C, oil or lipid, thermodynamic from solid, 21° C.; Oil/IL 60/40 weight ratio; IL N-ethyl-N′-methylimidazolium isononanoate; read-out: Solubility of fluxapyroxad with Cetiol ® B as oil
quantity: solubility (mg/mL)
One number for each entry, in mg/mL.

Look up solubility: Cn1cc(C(=O)Nc2ccccc2-c2cc(F)c(F)c(F)c2)c(C(F)F)n1 [fluxapyroxad]
46.7

----------
test: Solubility of agrochemical active ingredient in oil comprising ionic liquid; format: physicochemical; settings: Cetiol B oil comprising ionic liquid, 21 °C, oil or lipid, thermodynamic from solid, 21° C.; Oil/IL 60/40 weight ratio; IL N-ethyl-N′-ethylimidazolium propionate; read-out: Solubility of fluxapyroxad with Cetiol ® B as oil
quantity: solubility (mg/mL)
Numbers only, in mg/mL.

Look up solubility: Cn1cc(C(=O)Nc2ccccc2-c2cc(F)c(F)c(F)c2)c(C(F)F)n1
50.8
